# TARGET_OF_ASSAY: Streptokinase A (Streptococcus pyogenes serotype M1, UniProt P10520)
# Sequence (P10520 whole entry): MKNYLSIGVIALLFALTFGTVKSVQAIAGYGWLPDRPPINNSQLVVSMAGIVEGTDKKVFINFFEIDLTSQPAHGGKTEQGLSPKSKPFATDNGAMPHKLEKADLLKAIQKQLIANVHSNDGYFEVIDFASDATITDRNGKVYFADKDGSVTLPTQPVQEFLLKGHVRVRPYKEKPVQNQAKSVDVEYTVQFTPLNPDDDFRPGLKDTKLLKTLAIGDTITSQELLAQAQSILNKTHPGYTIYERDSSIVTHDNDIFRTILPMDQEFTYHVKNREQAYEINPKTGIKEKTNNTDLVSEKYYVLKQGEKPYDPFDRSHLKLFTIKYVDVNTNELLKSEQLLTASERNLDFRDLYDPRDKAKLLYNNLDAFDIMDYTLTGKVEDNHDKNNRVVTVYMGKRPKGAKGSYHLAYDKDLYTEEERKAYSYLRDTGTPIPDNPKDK
# ASSAY_NAME: S. pyogenes streptokinase expression inhibitors, potency, dose response, plasminogen activation absorbance, OD405 (AID 1914);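 note: secreted streptokinase activity via plasminogen activation per viability signal from cell pellet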
# Format: functional, Streptococcus pyogenes M1 GAS
Calls of active or inactive are those of the source.
A collection of compounds and their measured EC50

STRUCTURE | EC50
O=C1NC(=O)/C(=C\c2ccccc2OCc2ccccc2)S1 | 37.6 µM (active)
C=CCN1C(=O)NC(=O)/C(=C(/CC)Nc2ccc(N(C)C)cc2)C1=O | > 150 µM (not active)
CC(=O)c1cccc2c1N=C(c1[nH]c3ccccc3c1O)C2=O | 116 µM (active)

====

Consider the following compounds and their measured EC50 readings.
# ASSAY_NAME: Luminescence Cell-Based Dose Response HTS to Identify Inhibitors of 5'UTR Stem-Loop Driven Prion Protein mRNA Translation in H4 Neuroglioblastoma Cells. [Related pubchem assays: 1827 (Project Summary), 1813 (Primary HTS)]
# Format: functional
Active and inactive are the calls of the source.

STRUCTURE | EC50
CCOc1cccc(-c2c(C(=O)N/N=C/c3sccc3C)nnn2-c2nonc2N)c1 | 15.6 µM (active)
CCc1ccc(CNn2cnnc2SCC(=O)NC(C)(C)C)cc1 | > 120 µM (not active)
CC(=O)N(C(C)=O)c1ncnc2c1c(-c1ccc(Cl)cc1)nn2C(C)(C)C | 20.1 µM (active)
CCC(NN1CCCCC1)=C1C(=O)NC(=O)NC1=O | > 120 µM (not active)
Nc1ccc(C(=O)N/N=C/c2cn(Cc3ccc(F)cc3)c3ccccc23)cc1 | 17.7 µM (active)

====

# TARGET_OF_ASSAY: DNA repair and recombination protein RAD54-like (Homo sapiens)
# Sequence (Q92698 whole entry): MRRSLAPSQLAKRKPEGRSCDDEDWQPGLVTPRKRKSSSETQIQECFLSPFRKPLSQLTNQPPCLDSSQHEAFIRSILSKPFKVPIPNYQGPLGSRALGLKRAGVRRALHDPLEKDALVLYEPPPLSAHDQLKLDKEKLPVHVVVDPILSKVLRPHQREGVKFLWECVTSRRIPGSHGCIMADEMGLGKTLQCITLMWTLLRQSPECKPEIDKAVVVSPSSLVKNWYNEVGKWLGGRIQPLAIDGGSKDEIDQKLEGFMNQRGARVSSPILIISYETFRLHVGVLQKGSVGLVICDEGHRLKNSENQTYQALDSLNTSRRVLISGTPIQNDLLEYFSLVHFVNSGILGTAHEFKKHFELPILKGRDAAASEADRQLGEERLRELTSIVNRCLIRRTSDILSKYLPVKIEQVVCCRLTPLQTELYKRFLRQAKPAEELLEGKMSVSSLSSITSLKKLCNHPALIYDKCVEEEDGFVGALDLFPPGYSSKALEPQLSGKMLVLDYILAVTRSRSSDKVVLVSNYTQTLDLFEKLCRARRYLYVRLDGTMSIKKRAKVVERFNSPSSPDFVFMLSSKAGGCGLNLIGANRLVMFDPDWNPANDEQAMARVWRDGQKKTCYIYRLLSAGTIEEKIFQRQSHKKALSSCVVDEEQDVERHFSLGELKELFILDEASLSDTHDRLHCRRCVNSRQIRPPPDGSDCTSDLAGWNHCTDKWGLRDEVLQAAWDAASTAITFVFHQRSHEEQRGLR
# ASSAY_NAME: inhibitors of human RAD54 branch migration, confirmation, biochemical, fluorescence, cherry-picked samples, dose series (AID 651657)
# Format: functional
The source made the active and inactive calls.

COMPOUND | AC50
CN(C)C(CNC(=O)CCCN1C(=O)c2cccc3cccc(c23)C1=O)c1ccccc1 (stereo not given) | 43.4 µM (active)
Cc1nc2ccccc2c2oc(C(=O)NCCCN3CCC(C)CC3)cc12 | 36.5 µM (active)
Cc1cc2ccc3ccccc3c2cc1CN(C)C | 38.3 µM (active)
COC(=O)c1c(NC(=O)c2ccco2)sc2c1CCN(C(C)C)C2 | 25.4 µM (active)
CC(C)OCC(O)CN1CCN(CCN2C(=O)c3cccc4cccc(c34)C2=O)CC1 (stereo not given) | 8.86 µM (active)

// data source = ChEMBL document CHEMBL1201862
